# ∆Tm, nanoDSF (Dye-Free) per entry
# target-of-assay: hNudt16E76Q (Homo sapiens, UniProt Q96DE0, E76Q)
# Construct: 4xHis (four added histidines); made in house; host or cells: E. coli Rosetta 2 (DE3), pET16b
# Sequence (Q96DE0 whole entry E76Q): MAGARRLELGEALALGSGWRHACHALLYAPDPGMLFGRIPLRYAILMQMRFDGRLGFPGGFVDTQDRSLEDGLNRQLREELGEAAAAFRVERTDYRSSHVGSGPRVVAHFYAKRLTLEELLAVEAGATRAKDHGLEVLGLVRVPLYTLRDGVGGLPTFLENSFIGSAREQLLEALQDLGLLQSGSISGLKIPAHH
# assay-overview: Thermal stability of hNudt16E76Q with ligands, dye-free nanoDSF
# Format: binding
# condition-summary: 5 µM hNudt16E76Q, 20 mM MgCl2, 0.5 mM ligand, relative to apo
Just the number plus its unit, please.

Record excerpt, results attached:
compound: NC(=O)c1ccc[n+]([C@@H]2O[C@H](COP(=O)([O-])OP(=O)(O)OC[C@H]3O[C@@H](n4cnc5c(N)ncnc54)[C@H](O)[C@@H]3O)[C@@H](O)[C@H]2O)c1 [NAD, Nicotinamide adenine dinucleotide]
experimental-readout: ∆Tm, nanoDSF (Dye-Free)
result: 1.1 ± 0.1 °C

compound: C[n+]1cn([C@@H]2O[C@H](COP(=O)(O)OP(=O)(O)O)[C@@H](O)[C@H]2O)c2nc(N)[nH]c(=O)c21 [m^7GDP, 7-methylguanosine diphosphate]
experimental-readout: ∆Tm, nanoDSF (Dye-Free)
result: 1.6 ± 0.1 °C

compound: Nc1ncnc2c1ncn2[C@@H]1O[C@H](COP(=O)(O)OP(=O)(O)OC[C@H]2O[C@@H](n3cnc4c(N)ncnc43)[C@H](O)[C@@H]2O)[C@@H](O)[C@H]1O
experimental-readout: ∆Tm, nanoDSF (Dye-Free)
result: 1.7 ± 0.1 °C

compound: Cn1c[n+]([C@@H]2O[C@H](COP(=O)(O)OP(=O)([O-])OP(=O)(O)OC[C@H]3O[C@@H](n4cnc5c(=O)[nH]c(N)nc54)[C@H](O)[C@@H]3O)[C@@H](O)[C@H]2O)c2nc(N)[nH]c(=O)c21
experimental-readout: ∆Tm, nanoDSF (Dye-Free)
result: 8.4 ± 0.1 °C

Kindly consider the entry below.
[in] Fill in: ∆Tm, nanoDSF (Dye-Free) of Nc1nc2c(ncn2[C@@H]2O[C@H](COP(=O)(O)OP(=O)(O)O)[C@@H](O)[C@H]2O)c(=O)[nH]1 [GDP, Guanosine diphosphate] is ___
[out] 13.5 ± 0.1 °C
